Values from PubChem BioAssay (NCI)

Please go through the items and note down their growth.
- System: HL-60(TB) leukemia
- TEST_METHOD_NOTES: NCI-60 one-dose screen, 48 h (100 = growth as untreated, 0 = no growth, -100 = all killed)
- TEST_SETTINGS: 10 µM unless noted
Compounds without any hit were thinned out: in the full panel of roughly 83,000, 20% have a hit. Active and inactive are the calls of the source. The calls were made as follows: active = growth percent below 10; inactive = the rest.

The value of growth measured for the compound CCOC(=O)c1csc(-c2ccc(COC(=O)c3ccccc3)o2)n1 turned out to be 107% (inactive)

The value of growth measured for the compound C=C(CNCCO)[C@@H]1CC[C@]2(CO)CC[C@]3(C)[C@H](CC[C@@H]4[C@@]5(C)CCC(NCCO)C(C)(C)[C@@H]5CC[C@]43C)[C@@H]12 (stereo not given in full) turned out to be 66.2% (inactive)

The value of growth measured for the compound O=CN1N=C(c2cccc(Nc3ccnc4cc(Cl)ccc34)c2)CC1c1ccccc1 (stereo not given) turned out to be -1.22% (active)

The value of growth measured for the compound COc1cc(-c2nc(N3CCN(C)CC3)c3ccccc3n2)cc(OC)c1OC turned out to be 67% (inactive)

The value of growth measured for the compound CC[C@H](Nc1nc(N)nc(N)c1Cl)c1nc2cccc(NCc3ccc(C(=O)NO)cc3)c2c(=O)n1-c1ccccc1 turned out to be -34.7% (active)

The value of growth measured for the compound Cc1cccc(NCS(=O)(=O)O)c1 turned out to be 103% (inactive)

The value of growth measured for the compound CN(C)c1ccc(/C=C2/C=C(c3ccccc3)OC2=O)cc1 turned out to be 4.38% (active)

The value of growth measured for the compound CCN1CCN(c2cc(C(=O)Nc3cccc(Nc4ccc5c(OC)cccc5n4)c3)cc(C(F)(F)F)c2)CC1 turned out to be 62.6% (inactive)

The value of growth measured for the compound COc1ccc(C2C3=C(COC3=O)N(CCO)c3cc4c(cc32)OCCO4)cc1OC (stereo not given) turned out to be 6.34% (active)

The value of growth measured for the compound O=C(NS(=O)(=O)c1ccccc1)n1cc(-c2ccncc2)c(-c2cc(O)cc(Cl)c2)n1 turned out to be 103% (inactive)

The value of growth measured for the compound Cc1nn2c(-c3nc4cc(Cl)c(Cl)cc4[nH]3)c(-c3ccc(F)cc3)nc2s1 turned out to be 106% (inactive)

The value of growth measured for the compound [O-]c1c[n+](-c2ccc(Cl)cc2)no1 turned out to be 89.4% (inactive)

The value of growth measured for the compound Cc1ccc(/C=C(\C#N)c2cc3ccccc3n2C)cc1 turned out to be 4.45% (active)

The value of growth measured for the compound O=S(=O)(O)c1cc(O)c2c(N=Cc3ccccc3O)c(S(=O)(=O)O)ccc2c1 turned out to be 101% (inactive)

The value of growth measured for the compound CCN(CC)CCN1CC(=O)Nc2cc(Cl)ccc21 turned out to be 98.9% (inactive)

The value of growth measured for the compound Nc1c(C(=O)c2ccc(Cl)cc2)sc(Nc2ccccc2)c1-c1nc2ccccc2s1 turned out to be 69.6% (inactive)

The value of growth measured for the compound CC(=O)Nc1ccc(C(=O)COc2ccc(/C=C3\CCc4ccccc4C3=O)cc2)cc1 turned out to be 102% (inactive)

The value of growth measured for the compound Cc1ccc(Nc2cc(C)nc(NCCCNc3ccnc4cc(Cl)ccc34)n2)cc1 turned out to be -73% (active)

The value of growth measured for the compound Cc1cc(C2=NNC(=O)Cc3cc4c(cc32)OCCO4)cc(C)c1N turned out to be 21.6% (inactive)

The value of growth measured for the compound CCc1cc(Cc2cc(CC)cc(C(C)(C)C)c2O)c(O)c(C(C)(C)C)c1 turned out to be 58.1% (inactive)

---

Please go through the items and note down their growth.
- Tested on: HT29 colon
- TEST_METHOD_NOTES: NCI-60 one-dose screen, 48 h (100 = growth as untreated, 0 = no growth, -100 = all killed)
- TEST_SETTINGS: 10 µM unless noted
This is part of a sample that, as a whole, favours compounds with a hit. Of some 83,000 tested, about 20% had one in any assay.
Quick reminder: number only, in %, skip the unit.

The value of growth measured for the molecule CC(C)C1c2ccc(O)cc2Oc2nc(N)c(C#N)c(N)c21 (configuration not stated) turned out to be 109

The value of growth measured for the molecule ClCCN(CCCl)C(c1ccccc1)c1ccc(Cl)cc1 (configuration not stated) turned out to be 63

The value of growth measured for the molecule COC[CH2][Hg][C]#[C][Hg][CH2]COC turned out to be 100

The value of growth measured for the molecule Cc1nnc([S-])s1.[Au+].c1ccc([PH+](c2ccccc2)c2ccccc2)cc1 turned out to be 12

The value of growth measured for the molecule c1ccc(-c2ccc3ccccc3[o+]2)cc1 turned out to be 89.1

The value of growth measured for the molecule O=C(/C=C/c1ccccc1)N[C@@H](CO)Cc1cnc[nH]1 turned out to be 105

The value of growth measured for the molecule c1ccc2nc(OCCN3CC3)ccc2c1 turned out to be 43.8

The value of growth measured for the molecule CC1COC(=O)C1 (configuration not stated) turned out to be 98.2

The value of growth measured for the molecule CC(C)CCC[C@@H](C)[C@H]1CC[C@H]2[C@@H]3CC=C4C[C@@H](OC(=O)Cc5ccc(N(CCCl)CCCl)cc5)CC[C@]4(C)[C@H]3CC[C@]12C turned out to be 107

The value of growth measured for the molecule Clc1ccc(SSC(Cl)(Cl)Cl)cc1 turned out to be 101

The value of growth measured for the molecule CC(=O)Oc1ccc(Cl)cc1 turned out to be 98.3

The value of growth measured for the molecule Oc1ccc(O)c2c1C1(Cl)C(Cl)=C(Cl)C2(Cl)C1(Cl)Cl turned out to be 66.4

---

- Tested on: SW-620 colon
- TEST_METHOD_NOTES: NCI-60 one-dose screen, 48 h
- TEST_SETTINGS: 10 µM unless noted
This is part of a sample that, as a whole, favours compounds with a hit. Of some 83,000 tested, about 20% had one in any assay. Calls of active or inactive are those of the source. How the source made its calls: active means growth percent below 10; inactive means the rest.
// one of active, inactive, no free text

Query string: Recorded test call requested for Cc1nnc([S-])s1.[Au+].c1ccc([PH+](c2ccccc2)c2ccccc2)cc1
Result string: active

Query string: Recorded test call requested for O=C1NC(=O)C(O)(C2(O)C(=O)NC(=O)NC2=O)C(=O)N1
Result string: inactive

Query string: Recorded test call requested for Cn1cnnc1[S-].[Au+].c1ccc([PH+](c2ccccc2)c2ccccc2)cc1
Result string: active

Query string: Recorded test call requested for C[C@]12CC[C@@H]3c4ccc(OC(=O)Cc5ccc(N(CCCl)CCCl)cc5)cc4CC[C@H]3[C@@H]1CC[C@@H]2OC(=O)Cc1ccc(N(CCCl)CCCl)cc1
Result string: inactive

Query string: Recorded test call requested for CCC(C)(C)O
Result string: inactive

Query string: Recorded test call requested for CC(=O)OC1CCC2(C)C(=CCC3C4CC(CN5CC5)C(=O)C4(C)CCC32)C1 (stereo unspecified)
Result string: inactive

Query string: Recorded test call requested for CNC(=O)Oc1ccccc1-c1ccccc1
Result string: inactive

Query string: Recorded test call requested for CC(CC(C#N)(c1ccccc1)c1ccccc1)N1CCOCC1 (stereo unspecified)
Result string: inactive

Query string: Recorded test call requested for CC1(C)N=C(N)N=C(N)N1c1cccc(C(=O)Nc2cccc(S(=O)(=O)F)c2)c1
Result string: inactive

Query string: Recorded test call requested for [N-]=[N+]=NC(C(=O)O)c1ccccc1 (stereo unspecified)
Result string: inactive

Query string: Recorded test call requested for N#[N+]c1cnc([O-])[nH]c1=O
Result string: inactive

Query string: Recorded test call requested for CC[C@H](C)[C@H](NC(=O)Nc1ccccc1)C(=O)N(C)[C@H](C[C@@H](OC(C)=O)c1nc(C(=O)N[C@@H](Cc2ccccc2)C[C@H](C)C(=O)OC)cs1)C(C)C
Result string: inactive

Query string: Recorded test call requested for O=C(O)c1[nH]c(=O)[nH]c(=O)c1F
Result string: inactive

Query string: Recorded test call requested for COC1=CC(=O)OC(CCc2ccc3c(c2)OCO3)C1 (stereo unspecified)
Result string: inactive

Query string: Recorded test call requested for O=[N+]([O-])c1ccc2cnn(CSP(=S)(c3ccccc3)c3ccccc3)c2c1
Result string: inactive

Query string: Recorded test call requested for C[CH2][Pb]([CH2]C)([CH2]C)[O]C(=O)COc1ccccc1
Result string: active

Query string: Recorded test call requested for COc1cc(/C=C\c2cc(OC)c(OC)c(OC)c2)cc(N/C=C\C(=O)c2ccc(OC(F)(F)F)cc2)c1OC
Result string: inactive

Query string: Recorded test call requested for CC(C)N=C(NC(C)C)N1CC1
Result string: inactive

Query string: Recorded test call requested for CC(=O)O[C@H]1CCC2(C)C(=CCC3C2CCC2(C)/C(=N/OC(=O)c4ccc(N(CCCl)CCCl)cc4)CCC32)C1 (stereo partly specified)
Result string: inactive

Query string: Recorded test call requested for COc1cc2c(cc1OC)CN(C)C(C)C2 (stereo unspecified)
Result string: inactive

Query string: Recorded test call requested for Oc1c(Br)cc(Br)cc1Br.[Cu+2]
Result string: inactive
